Tested on: A549
TEST: relative viability (nuclei count vs DMSO), 5 days (fraction); higher = more cells survive
RUN CONDITIONS: first compound 1 µM
# maps each entry to its relative viability
RECORDED ENDPOINT: relative viability

* O=c1cc(N2CCOCC2)oc2c(-c3cccc4c3sc3ccccc34)cccc12 + CS(=O)(=O)N1CCN(Cc2cc3nc(-c4cccc5[nH]ncc45)nc(N4CCOCC4)c3s2)CC1 [Pictilisib] (partner 1 µM) | 0.599
* CCN(CC)CCCCNc1ncc2cc(-c3cc(OC)cc(OC)c3)c(NC(=O)NC(C)(C)C)nc2n1 + Cc1nc(NC(=O)N2CCC[C@H]2C(N)=O)sc1-c1ccnc(C(C)(C)C(F)(F)F)c1 [Alpelisib] (partner 2 µM) | 0.57

Origin of the recorded values: the supplement of paper PMC10307832
